Target: human MCHR1 (Homo sapiens, UniProt Q99705)
Construct: host or cells: CHO
Sequence (Q99705 whole entry): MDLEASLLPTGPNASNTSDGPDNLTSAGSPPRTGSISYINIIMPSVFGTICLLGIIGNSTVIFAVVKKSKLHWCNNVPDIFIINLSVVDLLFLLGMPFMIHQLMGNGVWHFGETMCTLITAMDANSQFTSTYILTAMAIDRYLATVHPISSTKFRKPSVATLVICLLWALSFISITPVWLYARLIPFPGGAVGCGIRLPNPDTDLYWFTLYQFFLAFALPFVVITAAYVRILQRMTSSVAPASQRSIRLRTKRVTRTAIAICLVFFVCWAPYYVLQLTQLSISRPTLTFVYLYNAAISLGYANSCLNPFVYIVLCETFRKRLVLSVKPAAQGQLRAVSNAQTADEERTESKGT
Assay: Cyclic AMP assay (MCHR-1 functional antagonism)
Format: cell-based
Conditions: CHO cells stably expressing human MCHR1; cAMP accumulation with 25 uM forskolin and 0.2 nM MCH, 90 min; Ki from IC50 by Cheng-Prusoff; read-out: MCHR-1 functional Ki
pKi: −log10 of the molar value. Counter-ions that a name gives are not always drawn.
PROPERTY: pKi

Completed entries (count: 4):
CC(=O)N1C[C@@H]2CN(c3ccc(-n4ccc(OCc5ccccc5)cc4=O)cn3)C[C@@H]2C1 | 7.30
COC(=O)N(C)[C@H]1CCN(c2ccc(-n3ccc(OCc4ccc(F)cc4)cc3=O)cn2)C1 | 7.65
O=c1cc(OCc2ccc(F)cc2)ccn1-c1ccc(N2CC(N3CCC3)C2)nc1 | 6.71
CC(=O)N[C@@H]1CCN(c2ccc(-n3ccc(OCc4ccc(Cl)cc4)cc3=O)cn2)C1 | 7.23

1 = CN[C@@H]1CCN(c2ccc(-n3ccc(OCc4ccccc4)cc3=O)cn2)C1 [Example 15, dihydrochloride]
2 = COC1CCN(c2ccc(-n3ccc(OCc4ccccc4)cc3=O)cn2)CC1
3 = CC(=O)N1CCN(c2ccc(-n3ccc(OCc4ccc(F)cc4)cc3=O)cn2)CC1
4 = COC(=O)N1C[C@@H]2CN(c3ccc(-n4ccc(OCc5ccc(F)cc5)cc4=O)cn3)C[C@@H]2C1
Hey, quick one: sort these by pKi, top value first please. # answer = labels listed in requested order 1, 4, 2, 3

* * *

Molecular target: human MCHR1 (Homo sapiens, UniProt Q99705)
Construct: host or cells: CHO
Experiment: Cyclic AMP assay (MCHR-1 functional antagonism)
Assay type: cell-based
Settings: CHO cells stably expressing human MCHR1; cAMP accumulation with 25 uM forskolin and 0.2 nM MCH, 90 min; Ki from IC50 by Cheng-Prusoff; read-out: MCHR-1 functional Ki
Description: CHO cell lines stably expressing the human MCHR1 (Euroscreen, Brussels, Belgium) were maintained in DMEM containing Glutamax (Invitrogen, Carlsbad, Calif.), 10% FBS, 400 ug/ml Geneticin. Cyclic AMP assays. […] Cells were incubated at 37° C./5% CO2 for 90 minutes and cAMP accumulation subsequently determined by DiscoveRx Hithunter c-AMP II Assay kit (GE Healthcare, Buckinghamshire, UK) in accordance with manufactures instructions. […]
pKi: −log10 of the molar value.
PROPERTY: pKi

Would you please look over these solved cases?
O=c1cc(OCc2ccc(Cl)cc2)ccn1-c1ccc(N2CC[C@H](O)C2)nc1 [Example 29] | 7.63
CNC1CN(c2ccc(-n3ccc(OCc4ccccc4)cc3=O)cn2)C1 [Example 111] | 6.79
CCN1C[C@@H]2CN(c3ccc(-n4ccc(OCc5ccccc5)cc4=O)cn3)C[C@@H]2C1 [Example 26] | 8.18
O=c1cc(OCc2ccccc2)ccn1-c1ccc(N2CCCCC2)nc1 [Example 110] | 7.38
CCN[C@@H]1CCN(c2ccc(-n3ccc(OCc4ccccc4)cc3=O)cn2)C1 [Example 19] | 8.17
CC(C)C1CN(c2ccc(-n3ccc(OCc4ccccc4)cc3=O)cn2)CCN1 (centres unmarked) [Example 70] | 6.99

P = O=c1cc(OCc2ccc(F)cc2)ccn1-c1ccc(N2CC[C@@H](O)C2)nc1 [Example 113]
Q = O=c1cc(OCc2ccccc2)ccn1-c1ccc(N2CCC(N3CCCC3)C2)nc1 (centres unmarked) [Example 63]
Thinking about recorded pKi values, which is higher, P or Q ? Bench note: the answer is the label of the chosen record. Q
(Q: 7.92, P: 7.30)
